// data source = the supplement of paper PMC6555819

Tested on: PPARg DBDmut:RXRa IVT, anti-PPARg (DBD mutation: PPARg1 K132A/R137A, NR concentration 270 nM, RXRa partner concentration 90 nM)
PROTOCOL DETAILS: PBM binding z-score (relative to random genomic background probes); higher = stronger binding; sequences stand for … in GC…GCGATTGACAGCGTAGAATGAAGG
ASSAY READOUT: PBM binding z-score
I only need the number, thanks.

# PBM binding z-score (sequence: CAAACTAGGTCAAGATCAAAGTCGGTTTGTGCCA ) is 5.86

New cases:
# PBM binding z-score (sequence: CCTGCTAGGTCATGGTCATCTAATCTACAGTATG ) is 0.258

# PBM binding z-score (sequence: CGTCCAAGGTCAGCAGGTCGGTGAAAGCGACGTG ) is -0.853

# PBM binding z-score (sequence: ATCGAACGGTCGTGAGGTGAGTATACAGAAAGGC ) is 0.438

# PBM binding z-score (sequence: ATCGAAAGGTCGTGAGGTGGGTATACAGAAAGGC ) is 0.885

# PBM binding z-score (sequence: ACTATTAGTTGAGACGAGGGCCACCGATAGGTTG ) is 0.833
